- System: Chordin-like protein 2 (CHRDL2)
- Assay Details: CHRDL2 small-molecule binders, primary screen, biochemical, small-molecule microarray, 635 nm fluorescence (AID 1126);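 also: printed compound slides probed with Chrdl2 protein at 4 µg/mL for 1 h at 4 C; score merges 667 nm emission intensity with signal to noise over three replicate slides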
- Cond: small-molecule microarray binding, fluorescence 635 nm; higher = more signal
Property Label: composite z-score
Just the number, please.

Name the reported composite z-score value associated with the compound `C=CC[C@]12N=C(c3ccc(OCCCO)cc3)O[C@H]1c1ccccc1N(CCC)C2=O`
1.2

Entry to check: `COC(=O)C(CC#Cc1ccc2c(c1)[C@]1(C(=O)N2)[C@H](C(N)=O)[C@H]2C(=O)O[C@H](c3ccccc3)[C@H](c3ccccc3)N2[C@@H]1c1ccccc1OCCO)C(=O)OC`
-0.0393

Query `COCCOC(=O)N1C(=O)[C@@]2(c3cc(C#CCCO)ccc31)[C@H](C(=O)N1CCN(c3ncccn3)CC1)[C@H]1C(=O)O[C@H](c3ccccc3)[C@H](c3ccccc3)N1[C@@H]2c1ccc(OCCO)cc1` next
0.372

Try this compound too: `COC(=O)[C@@]1(Cc2ccc(F)cc2)[C@H]2c3cc(C(=O)N(C)C)n(Cc4cccc5ccccc45)c3C[C@H]2CN1C(=O)c1ccccc1`
-0.967

Would you kindly repeat that for `CCOC(=O)C[C@H]1[C@H](OC(=O)c2ccccc2-c2ccccc2)[C@@H](NC(=O)CC(C)C)c2cc(OCCCO)ccc2N1C(=O)c1ccccc1` ?
0.389

* * *

- Assay Details: small-molecule binders of probe aNOTCH2, primary screen, biochemical, small-molecule microarray, 635/667 nm fluorescence (AID 1121);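 also: score merges feature fluorescence read at 667 nm with its signal to noise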
- Cond: higher = more signal
What composite z-score was measured for each of the following?

What value of measured composite z-score is listed for `O=C1c2ccccc2[C@@]2(Cc3ccccc3N(CC(F)(F)F)C2=O)[C@H](c2ccc(CO)cc2)N1Cc1ccccc1` ?
-0.219

Let us now turn to `[N-]=[N+]=NCc1ccccc1C[C@@]1(C(N)=O)N=C(c2ccc(OCCCO)cc2)O[C@@H]1c1ccccc1N=[N+]=[N-]`
0.0368

Similarly, CCN1C(=O)C2CC(=O)C3C(CN(S(=O)(=O)c4ccc(C)cc4)C3c3ccc(C)cc3)C2C1=O (stereo not drawn) ?
-0.108

* * *

- Assay Details: binders from COS7 lysate, DM2A8 probe, primary screen, torsin A project, cell lysate, small-molecule microarray, fluorescence 635/667 (AID 1065)
- Cond: higher = more signal, COS7 lysate expressing mutant human TOR1A
Decision: composite z-score compared against 1; not below it gives Satisfied, below it gives Not satisfied.

Decide: is the reported value of composite z-score for `C=CCNC(=O)[C@H]1[C@@H]2C(=O)O[C@@H](c3ccccc3)[C@@H](c3ccccc3)N2[C@@H](c2ccc(OCCO)cc2)[C@]12C(=O)N(C(=O)OCCOC)c1ccc(C#CCNC(N)=O)cc12` equal to or greater than 1?
Not satisfied

Can you handle `CC(C)C(=C=CC[C@H](O)c1cccc(OCCO)c1)C[C@H](O)c1ccccn1` next?
Not satisfied

Proceed to CC(C)c1ccc(NN2C(C(O)C(C)c3ccccc3)C=CC3C(=O)N(c4ccccc4)C(=O)C32)cc1 (stereo not given)
Satisfied

Same for `CC(C)Cc1ccc(CN2CC[C@@H](NC(=O)c3ccccc3)C2)cc1`
Not satisfied

Please answer likewise for `Cc1ccc(S(=O)(=O)N2[C@@H](c3ccccc3)C(C(=O)O)=C[C@H]2C(C)(C)C)cc1`
Satisfied

* * *

Task for the reader: assign each of the following compounds its reported z-score.
- Assay Details: fission yeast growth modulation, primary screen, strain 972, OD600, 24 h, no modulator (AID 1090);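 also: basal condition with compound alone and no growth modifier present; test concentration not given here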
- Cond: S. pombe 972 growth, higher = more signal, called active from +8 up or from −8 down
Could you keep your reply to the number by itself?

If you can, please state the reported z-score value of `O=C1N(Cc2ccccc2)Cc2ccccc2C[C@@]12COC(c1ccc(OCCCO)cc1)=N2` .
-1.05

Then what about the compound O=C1NC(=O)C2C1C=CC(C(O)C1CCCCC1)N2Nc1ccccn1 (stereo not given) ?
0.633

And what about the compound `COC(=O)C(CC#Cc1ccc2c(c1)[C@]1(C(=O)N2)[C@H](C(=O)N2CCCCCCC2)[C@H]2C(=O)O[C@H](c3ccccc3)[C@H](c3ccccc3)N2[C@@H]1c1ccc(OCCO)cc1)C(=O)OC` ?
0.563

Same question for `COCCOC(=O)N1C(=O)[C@@]2(c3cc(C#CCNC(N)=O)ccc31)[C@H](C(N)=O)[C@H]1C(=O)O[C@H](c3ccccc3)[C@H](c3ccccc3)N1[C@@H]2c1ccc(O)cc1` please.
-0.173

Moving on to `Cc1ccc(S[C@]2(C(=O)NC3CC3)CC(=O)N(C3Cc4ccccc4C3)[C@@H]2c2ccc(CO)cc2I)cc1`
-2.85

Could you do the same for `COc1ccc(CCNC(=O)[C@@]2(C)c3ccccc3C(=O)N(Cc3ccc(OC(F)(F)F)cc3)[C@H]2c2ccc(CO)cc2)cc1` , please?
-0.553

Another compound to look at: `COc1ccc([Si](C)(C)[C@H]2[C@H](CCO)O[C@@]3(C(=O)N(Cc4ccccc4)c4ccc(NC(=O)[C@H](C)O)cc43)[C@@H]2C)cc1`
0.215

Input `O=C(NCCN1CCOCC1)[C@@H]1c2ccccc2C(=O)N(CC23CC4CC(CC(C4)C2)C3)[C@H]1c1ccc(CO)cc1`
-1.27

Continue with `O=C(O)C1=CC[C@H]2C(=O)N(c3ccccc3)C(=O)[C@@H]12`
1.38

Try this compound too: `O=C(NC1CC1)[C@@H]1c2ccccc2C(=O)N(C2CCCCC2)[C@H]1c1ccc(CO)cc1`
-0.0911

* * *

- Assay Target: NADPH oxidase 4 (Homo sapiens) (UniProt Q9NPH5)
- Sequence (Q9NPH5 whole entry, looked up): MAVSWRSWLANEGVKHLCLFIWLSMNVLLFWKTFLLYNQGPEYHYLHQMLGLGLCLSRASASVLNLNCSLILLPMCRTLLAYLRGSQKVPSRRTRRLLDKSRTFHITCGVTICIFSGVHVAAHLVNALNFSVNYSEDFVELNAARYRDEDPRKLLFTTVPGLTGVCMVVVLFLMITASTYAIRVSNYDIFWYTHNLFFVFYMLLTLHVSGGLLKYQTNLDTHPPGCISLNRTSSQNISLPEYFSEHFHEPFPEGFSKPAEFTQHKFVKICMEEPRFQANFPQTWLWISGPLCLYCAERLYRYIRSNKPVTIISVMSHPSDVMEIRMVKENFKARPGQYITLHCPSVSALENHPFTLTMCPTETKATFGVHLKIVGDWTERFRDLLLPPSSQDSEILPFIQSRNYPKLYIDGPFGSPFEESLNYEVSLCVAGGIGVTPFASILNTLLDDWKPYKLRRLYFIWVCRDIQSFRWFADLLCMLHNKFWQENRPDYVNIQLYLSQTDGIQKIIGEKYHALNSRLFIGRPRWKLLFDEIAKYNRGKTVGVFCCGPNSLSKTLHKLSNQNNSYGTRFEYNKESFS
- Assay Details: NOX4-dependent H2O2 signal modulators, primary screen, NOX inhibitor project, cell-based, HEK293-NOX4, tetracycline-induced, Amplex Red fluorescence (AID 1160)
- Cond: 45 min, higher = more signal, called active from +8 up or from −8 down
Property Label: z-score
Please respond with just the number, no unit label.

I'd like to know its z-score. The molecule in question is `COC(=O)[C@@]1(Cc2ccc(F)cc2)[C@H]2c3cc(C(=O)N(C)C)n(CCF)c3C[C@H]2CN1C(=O)c1ccccc1`
0.864

Next entry: `C=C(COC)/C(=C/C[C@@H](OC(=O)c1ccncc1)c1ccccc1OCCO)c1cnc2ccccc2c1`
0.217

Do the same for `COc1ccc([Si](C)(C)[C@H]2[C@H](CC(=O)N(CCO)Cc3ccccc3)O[C@@]3(C(=O)N(Cc4cccc(N5CCCCC5=O)c4)c4ccccc43)[C@@H]2C)cc1` please
0.591

Also `O=C1O[C@H](c2ccccc2)[C@H](c2ccccc2)N2[C@H]1[C@@H](C(=O)N1CCN(c3ncccn3)CC1)[C@]1(C(=O)Nc3ccc(C#CC4(O)CCCCCC4)cc31)[C@H]2c1ccc(O)cc1` ?
0.663

Same thing, different molecule: `COCCOC(=O)N1C(=O)[C@@]2(c3cc(C#CCCO)ccc31)[C@H](c1ccc(O)cc1)N1[C@H](c3ccccc3)[C@H](c3ccccc3)OC(=O)[C@H]1[C@@H]2C(=O)NC[C@H](O)c1ccccc1`
0.521

Then `CC(C)C[C@@H]1NC(=O)[C@@H]2C[C@H](C(=O)NCCCCCCNC(=O)CS)[C@H](c3ccc(O)cc3)N2C1=O` ?
0.943

* * *

- Assay Details: binders from COS7 lysate, DM2A8 probe, primary screen, torsin A project, cell lysate, small-molecule microarray, fluorescence 635/667 (AID 1065)
- Cond: higher = more signal, COS7 lysate expressing mutant human TOR1A
composite z-score vs 0.6: at or above is Satisfied, below is Not satisfied.

State whether the measured composite z-score reaches 0.6, counting equality as reaching it, for `NCCCCCCNC(=O)[C@@H]1C[C@@H]2C(=O)NCC(=O)N2[C@@H]1c1cccc(OCCO)c1`
Satisfied

Now consider `COc1cccc(C)c1NC(=O)O[C@H]1[C@H](OC(=O)Nc2ccccc2)[C@@H](OC(=O)Nc2ccccc2)[C@@H](OC)O[C@@H]1CO` and answer again.
Satisfied

Another molecule to check: `O=C1O[C@H](c2ccccc2)[C@H](c2ccccc2)N2[C@H]1[C@@H](C(=O)N1CCCCCCC1)[C@]1(C(=O)Nc3ccc(C#CCCO)cc31)[C@H]2c1ccc(O)cc1`
Satisfied

Follow-up item: `C=C1C(=O)C=C2CN(C(=O)c3ccccc3)[C@@](Cc3ccc(F)cc3)(C(=O)OC)[C@@H]12`
Not satisfied

Follow-up entry: `C=CCNC(=O)[C@@H]1[C@H]2C(=O)O[C@H](c3ccccc3)[C@H](c3ccccc3)N2[C@H](c2ccc(O)cc2)[C@@]12C(=O)Nc1ccc(C#CC3=CCCCC3)cc12`
Satisfied

Ok, now `C#CCN(C(=O)OC(C)(C)C)[C@H](CO)c1ccccc1`
Not satisfied

Quick one: O=C1C2C=CC(C(O)c3ccccn3)N(Nc3ccc([N+](=O)[O-])cc3)C2C(=O)N1c1ccccc1 (configuration not stated)
Not satisfied

And for `C=CCNC(=O)[C@@H]1[C@H]2C(=O)O[C@H](c3ccccc3)[C@H](c3ccccc3)N2[C@H](c2ccc(OCCO)cc2)[C@@]12C(=O)N(C(=O)OCCOC)c1ccccc12` ?
Satisfied

Same question for `C[C@]1(C(=O)NCC(F)(F)F)c2ccccc2C(=O)N(Cc2cc(C(F)(F)F)cc(C(F)(F)F)c2)[C@H]1c1ccc(CO)cc1` please.
Not satisfied

Follow-up entry: `O=C(NCCN1CCOCC1)[C@@H]1c2ccccc2C(=O)N(CC23CC4CC(CC(C4)C2)C3)[C@H]1c1ccc(CO)cc1`
Not satisfied

Would you kindly repeat that for COc1ccc(C(O)C2C=CC3C(=O)N(C)C(=O)C3N2Nc2ccccc2)cc1 (configuration not stated) ?
Not satisfied

One more molecule: `COc1cc2c(cc1OC)CN(C(=O)[C@@H]1[C@H]3C(=O)O[C@H](c4ccccc4)[C@H](c4ccccc4)N3[C@H](c3ccc(O)cc3)[C@@]13C(=O)Nc1ccc(C#CC4=CCCCC4)cc13)CC2`
Not satisfied
